The values you see were collected from BindingDB's records for doi:10.1021/acsmedchemlett.6b00363.

target: Beta-2 adrenergic receptor (Homo sapiens)
Sequence (P07550 whole entry): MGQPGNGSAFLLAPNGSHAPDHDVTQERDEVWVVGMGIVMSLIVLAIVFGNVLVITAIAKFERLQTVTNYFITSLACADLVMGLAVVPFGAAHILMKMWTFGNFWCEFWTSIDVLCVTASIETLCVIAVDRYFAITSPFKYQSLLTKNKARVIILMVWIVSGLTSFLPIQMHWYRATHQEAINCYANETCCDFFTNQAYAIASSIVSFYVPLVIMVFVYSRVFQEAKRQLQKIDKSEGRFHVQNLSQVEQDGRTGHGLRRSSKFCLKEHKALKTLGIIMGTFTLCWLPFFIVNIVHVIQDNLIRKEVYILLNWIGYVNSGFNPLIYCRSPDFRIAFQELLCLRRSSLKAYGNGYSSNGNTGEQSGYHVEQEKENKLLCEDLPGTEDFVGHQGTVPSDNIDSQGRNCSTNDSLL
measured.endpoint: Kd (µM)
Express the result in µM but write the number alone.

Task: Can you share its Kd? I mean this molecule: Cc1cc(O)c(CN(C)C)c2c1C(=O)/C(=C/c1ccccc1)O2
Output: 25.1
